Sourced from the supplement of paper PMC10307832

System: LXF-289
Experimental protocol: relative viability (nuclei count vs DMSO), 5 days (fraction); higher = more cells survive
Condition set: first compound 4 µM
Measured endpoint: relative viability
// return just the number, without any unit appended

[Q] Answer with reported relative viability of Clc1ccc(Nc2nnc(Cc3ccncc3)c3ccccc23)cc1 [Vatalanib] + CS(=O)(=O)CCNCc1ccc(-c2ccc3ncnc(Nc4ccc(OCc5cccc(F)c5)c(Cl)c4)c3c2)o1 [Lapatinib] (partner 2 µM)
[A] 0.904

[Q] Report measured relative viability; entry is Clc1ccc(Nc2nnc(Cc3ccncc3)c3ccccc23)cc1 [Vatalanib] + Nc1nc2[nH]cc(CCc3ccc(C(=O)N[C@@H](CCC(=O)O)C(=O)O)cc3)c2c(=O)[nH]1 [Pemetrexed] (partner 0.2 µM)
[A] 0.822

[Q] // Input: C[C@@H]1CN(CC(=O)Nc2ccc3c(c2)Cc2cccc(-c4cc(=O)cc(N5CCOCC5)o4)c2S3)C[C@H](C)O1 + Nc1nc2[nH]cc(CCc3ccc(C(=O)N[C@@H](CCC(=O)O)C(=O)O)cc3)c2c(=O)[nH]1 [Pemetrexed] (partner 0.2 µM) . Output its relative viability only.
[A] 0.818

[Q] Please supply the value of reported relative viability for the item COc1cc(N2CCC(C(N)=O)CC2)ccc1Nc1nc(N)c(Cl)c(Nc2ccccc2S(=O)(=O)C(C)C)n1 [HG-5-88-01] + O=C(CCCCCCC(=O)Nc1ccccc1)NO [Vorinostat] (partner 1 µM)
[A] 0.822

[Q] Look up and report measured relative viability for this entry: COc1cc(N2CCC(C(N)=O)CC2)ccc1Nc1nc(N)c(Cl)c(Nc2ccccc2S(=O)(=O)C(C)C)n1 [HG-5-88-01] + NC(=O)Nc1cc(-c2cccc(F)c2)sc1C(=O)N[C@H]1CCCNC1 [AZD7762] (partner 0.2 µM)
[A] 1.11

[Q] Look up and report measured relative viability for this entry: C[C@@H]1CN(CC(=O)Nc2ccc3c(c2)Cc2cccc(-c4cc(=O)cc(N5CCOCC5)o4)c2S3)C[C@H](C)O1 + COc1cccc2cc(-c3nc([C@H]4CC[C@H](C(=O)O)CC4)n4ncnc(N)c34)[nH]c12 [OSI-027] (partner 0.5 µM)
[A] 0.777

---

Test system: NCI-H727
Experimental protocol: relative viability (nuclei count vs DMSO), 5 days (fraction); higher = more cells survive
Condition set: first compound 0.03162 µM
Measured endpoint: relative viability
Number only, no unit.

[Q] Identify the reported relative viability for the following entry. CC(C)Oc1cc(Nc2nc(N[C@@H](C)c3ccc(F)cn3)ncc2Cl)n[nH]1 [AZ23] + CC(=O)c1c(C)c2cnc(Nc3ccc(N4CCNCC4)cn3)nc2n(C2CCCC2)c1=O [Palbociclib] (partner 0.5 µM)
[A] 0.66

[Q] For the compound CC(C)Oc1cc(Nc2nc(N[C@@H](C)c3ccc(F)cn3)ncc2Cl)n[nH]1 [AZ23] + CC(C)C[C@H](NC(=O)[C@H](Cc1ccccc1)NC(=O)c1cnccn1)B(O)O [Bortezomib] (partner 0.002 µM) , give its measured relative viability value.
[A] 0.855

[Q] Find the measured relative viability of CC(C)Oc1cc(Nc2nc(N[C@@H](C)c3ccc(F)cn3)ncc2Cl)n[nH]1 [AZ23] + CC1(C)CCC(c2ccc(Cl)cc2)=C(CN2CCN(c3ccc(C(=O)NS(=O)(=O)c4ccc(N[C@H](CCN5CCOCC5)CSc5ccccc5)c(S(=O)(=O)C(F)(F)F)c4)cc3)CC2)C1 [Navitoclax] (partner 0.5 µM) and report it.
[A] 0.506

---

What relative viability was measured for each of the following?
System: NCI-H322M
Experimental protocol: relative viability (nuclei count vs DMSO), 5 days (fraction); higher = more cells survive
Condition set: first compound 4 µM
Enter a number only.

[Q] State its relative viability for this compound: C[C@@H]1CN(CC(=O)Nc2ccc3c(c2)Cc2cccc(-c4cc(=O)cc(N5CCOCC5)o4)c2S3)C[C@H](C)O1 + CC(C)C[C@H](NC(=O)[C@H](Cc1ccccc1)NC(=O)c1cnccn1)B(O)O [Bortezomib] (partner 0.002 µM)
[A] 1.12

[Q] Input C[C@@H]1CN(CC(=O)Nc2ccc3c(c2)Cc2cccc(-c4cc(=O)cc(N5CCOCC5)o4)c2S3)C[C@H](C)O1 + C[C@]1(O)C[C@@H](c2nc(-c3ccc4ccc(-c5ccccc5)nc4c3)c3c(N)nccn32)C1 [Linsitinib] (partner 1 µM) , output reported relative viability.
[A] 0.79

[Q] Note relative viability for the compound shown: COc1cc(N2CCC(C(N)=O)CC2)ccc1Nc1nc(N)c(Cl)c(Nc2ccccc2S(=O)(=O)C(C)C)n1 [HG-5-88-01] + Nc1nc2[nH]cc(CCc3ccc(C(=O)N[C@@H](CCC(=O)O)C(=O)O)cc3)c2c(=O)[nH]1 [Pemetrexed] (partner 0.2 µM)
[A] 0.509

[Q] For the compound Clc1ccc(Nc2nnc(Cc3ccncc3)c3ccccc23)cc1 [Vatalanib] + Nc1nc2[nH]cc(CCc3ccc(C(=O)N[C@@H](CCC(=O)O)C(=O)O)cc3)c2c(=O)[nH]1 [Pemetrexed] (partner 0.2 µM) , give its measured relative viability value.
[A] 0.572

[Q] Respond only with relative viability recorded for Clc1ccc(Nc2nnc(Cc3ccncc3)c3ccccc23)cc1 [Vatalanib] + Cc1cc(Nc2cc(N3CCN(C)CC3)nc(Sc3ccc(NC(=O)C4CC4)cc3)n2)n[nH]1 [Tozasertib] (partner 0.1 µM)
[A] 0.463

---

System: HCC-15
Experimental protocol: relative viability (nuclei count vs DMSO), 5 days (fraction); higher = more cells survive
Condition set: first compound 0.1265 µM
Measured endpoint: relative viability
Respond with the number and no other words.

[Q] Identify measured relative viability associated with Clc1ccc(Nc2nnc(Cc3ccncc3)c3ccccc23)cc1 [Vatalanib] + C[C@@H](Oc1cc(-c2cnn(C3CCNCC3)c2)cnc1N)c1c(Cl)ccc(F)c1Cl [Crizotinib] (partner 1 µM)
[A] 0.768

[Q] Using known records, supply relative viability for Clc1ccc(Nc2nnc(Cc3ccncc3)c3ccccc23)cc1 [Vatalanib] + CC(=O)c1c(C)c2cnc(Nc3ccc(N4CCNCC4)cn3)nc2n(C2CCCC2)c1=O [Palbociclib] (partner 0.5 µM)
[A] 0.676

[Q] Please report the measured relative viability for C[C@@H]1CN(CC(=O)Nc2ccc3c(c2)Cc2cccc(-c4cc(=O)cc(N5CCOCC5)o4)c2S3)C[C@H](C)O1 + CC(=O)Nc1cccc(-n2c(=O)n(C3CC3)c(=O)c3c(Nc4ccc(I)cc4F)n(C)c(=O)c(C)c32)c1 [Trametinib] (partner 0.02 µM)
[A] 0.331

[Q] Determine its reported relative viability: COc1cc(N2CCC(C(N)=O)CC2)ccc1Nc1nc(N)c(Cl)c(Nc2ccccc2S(=O)(=O)C(C)C)n1 [HG-5-88-01] + COc1cccc2cc(-c3nc([C@H]4CC[C@H](C(=O)O)CC4)n4ncnc(N)c34)[nH]c12 [OSI-027] (partner 0.5 µM)
[A] 0.8

[Q] Determine from records and report relative viability for Clc1ccc(Nc2nnc(Cc3ccncc3)c3ccccc23)cc1 [Vatalanib] + O=C(CCCCCCC(=O)Nc1ccccc1)NO [Vorinostat] (partner 1 µM)
[A] 0.836

---

Test system: NCI-H661
Experimental protocol: relative viability (nuclei count vs DMSO), 5 days (fraction); higher = more cells survive
Condition set: first compound 0.4 µM
Measured endpoint: relative viability
// return a plain number; no unit text

[Q] For C[C@@H]1CN(CC(=O)Nc2ccc3c(c2)Cc2cccc(-c4cc(=O)cc(N5CCOCC5)o4)c2S3)C[C@H](C)O1 + O=C(CCCCCCC(=O)Nc1ccccc1)NO [Vorinostat] (partner 1 µM) , write its relative viability.
[A] 0.756

[Q] Answer with the recorded relative viability for the molecule listed here: C[C@@H]1CN(CC(=O)Nc2ccc3c(c2)Cc2cccc(-c4cc(=O)cc(N5CCOCC5)o4)c2S3)C[C@H](C)O1 + Nc1nc2[nH]cc(CCc3ccc(C(=O)N[C@@H](CCC(=O)O)C(=O)O)cc3)c2c(=O)[nH]1 [Pemetrexed] (partner 0.2 µM)
[A] 0.899

[Q] In one line, give reported relative viability of the entry COc1cc(N2CCC(C(N)=O)CC2)ccc1Nc1nc(N)c(Cl)c(Nc2ccccc2S(=O)(=O)C(C)C)n1 [HG-5-88-01] + C[C@@H](Oc1cc(-c2cnn(C3CCNCC3)c2)cnc1N)c1c(Cl)ccc(F)c1Cl [Crizotinib] (partner 1 µM) .
[A] 1.1

[Q] Give a short answer stating reported relative viability for Clc1ccc(Nc2nnc(Cc3ccncc3)c3ccccc23)cc1 [Vatalanib] + Nc1ncn([C@H]2C[C@H](O)[C@@H](CO)O2)c(=O)n1 [Decitabine] (partner 2 µM) .
[A] 0.544

[Q] Tell me measured relative viability for Clc1ccc(Nc2nnc(Cc3ccncc3)c3ccccc23)cc1 [Vatalanib] + COc1cc2c(Oc3ccc(NC(=O)C4(C(=O)Nc5ccc(F)cc5)CC4)cc3F)ccnc2cc1OCCCN1CCOCC1 [Foretinib] (partner 0.25 µM) please.
[A] 1.07

[Q] Identify measured relative viability associated with COc1cc(N2CCC(C(N)=O)CC2)ccc1Nc1nc(N)c(Cl)c(Nc2ccccc2S(=O)(=O)C(C)C)n1 [HG-5-88-01] + CC(=O)Nc1cccc(-n2c(=O)n(C3CC3)c(=O)c3c(Nc4ccc(I)cc4F)n(C)c(=O)c(C)c32)c1 [Trametinib] (partner 0.02 µM)
[A] 0.573
